# ASSAY_DETAILS: In vivo pharmacokinetics of probe drugs in WT and ERL (POR-deleted) mice, blood LC-MS/MS
# CONDITION_DESCRIPTION: ERL (Por^lox/lox/Cre^Cyp1a1-KI), mouse, in vivo, po, Cmax, Liver and gut null (ERL + 3MC 40 mg/kg, day 14); single p.o. dose nelfinavir 50, paroxetine 10 or midazolam 5 mg/kg; mean ± S.D., n=3
MEASURED_PARAMETER: Cmax

The recorded Cmax for "Cc1ncc2n1-c1ccc(Cl)cc1C(c1ccccc1F)=NC2" is 4460 ng/mL

* * *

# ASSAY_DETAILS: In vivo pharmacokinetics of probe drugs in WT and ERL (POR-deleted) mice, blood LC-MS/MS
# CONDITION_DESCRIPTION: WT (Por^lox/lox), mouse, in vivo, po, Cmax, Control (WT + corn oil); single p.o. dose nelfinavir 50 mg/kg, paroxetine 10 mg/kg or midazolam 5 mg/kg; mean ± S.D., n=3
MEASURED_PARAMETER: Cmax (ng/mL)
Report the value in ng/mL with no unit label.

Form: molecule = "Cc1ncc2n1-c1ccc(Cl)cc1C(c1ccccc1F)=NC2" ; Cmax = 610

Just for reference, paper PMC6949133 is where these values come from.
